Source of measurements: PubChem BioAssay (NCI)

Tested on: U251 CNS
Assay: NCI-60 one-dose screen, 48 h (100 = growth as untreated, 0 = no growth, -100 = all killed)
Conditions: 10 µM unless noted
Procedure: Growth inhibition of the U251 human tumor cell line is measured as a screen for anti-cancer activity. Cells are grown in 96 well plates and exposed to the test compound for 48 hours. Compounds are tested at a single concentration, which is 10^-5 M for most compounds. The reported endpoint is percent growth (GI% or GIPRCNT), where numbers from 0 - 100% represent growth inhibition, and numbers from -100% - 0 represent cell death. For example, a value of 40 represents 60% growth inhibition. […]
About 83,000 compounds went through this panel and 20% of them were active in at least one assay; those are over-represented in the sample as a whole.
Reported growth by item:
Report the figure in % without appending any unit label.

In [3]: df
Out[3]:
                                   compound  quantity_kind  units_text  measured_result
0                 Cc1ccc(OC(=O)c2ccccc2)cc1         growth           %             94.8
1  Cc1c(-c2ccc(C3CCCCC3)cc2)nc2ccc(F)cc2c1C(=O)O         growth           %             44.2
2                       Cc1nc(O)cc(=O)[nH]1         growth           %              118
3  CS(=O)CC(=N\O)/C(CS(C)=O)=N\O (stereo not given)         growth           %             96.5

Enquiry: May I ask what growth has been recorded for "CCN(CC)CCN1CNC(=S)NC1" ?
Return: 105

Enquiry: Form field: reported growth of "C=C(C)[C@@H]1CC[C@]2(CO)CC[C@]3(C)[C@H](CC[C@@H]4[C@@]5(C)CC[C@H](O)C(C)(C)[C@@H]5CC[C@]43C)[C@@H]12"
Return: 24.9

Enquiry: Please look up its growth: "O=C(N/N=C\c1ccc(Cl)cc1Cl)c1ccncc1"
Return: 92.7

Enquiry: Please report the recorded growth for "O=[n+]1ccn([O-])c2ccccc21" .
Return: 100

Enquiry: Fill in the blank: the reported growth of "CCOc1ccc(C(=O)NCC(C)C)cc1" is ____.
Return: 101

Enquiry: Bench note: what growth did "COc1ccc2c(ccc[n+]2C)c1" show?
Return: 96.7

* * *

Tested on: UO-31 renal
Assay: NCI-60 one-dose screen, 48 h (100 = growth as untreated, 0 = no growth, -100 = all killed)
Details: 10 µM unless noted
This is part of a sample that, as a whole, favours compounds with a hit. Of some 83,000 tested, about 20% had one in any assay.
Flag rule - growth less than 80% flags Satisfied; the remaining entries get Not satisfied.

Study these solved cases before continuing.
                                   molecule  assigned_class
0             CC(CCC#N)(CCC#N)C(=O)c1ccccc1       Satisfied
1                 CC(C)c1ccc(C(=O)OCCCl)cc1   Not satisfied
2                CC(C)N(C(=O)c1ccccc1)C(C)C   Not satisfied
3  CSCC[C@@H]1C(=O)N(C)[C@H](C(C)(C)C)N1C(=O)c1ccccc1   Not satisfied
4                     O=C(CCCl)OCCOc1ccccc1   Not satisfied

Enquiry: Hi there! Is growth for "O=[N+]([O-])c1ccc(-c2nc(N(CCO)CCO)c3ccccc3n2)o1" below 80%, do you know?
Return: Satisfied

Enquiry: Problem: For the molecule "COc1cc(CC#N)c([N+](=O)[O-])cc1OC" , is growth under 80%?
Return: Not satisfied

Enquiry: Report whether reported growth is lower than 80% (strictly) for "C=CCOc1ccc(Cl)cc1Cl"
Return: Not satisfied
